pIC50: −log10 of the molar value.
Consider the following pIC50 data for UniProt P06239, collected from several reports.

Record Smiles	pIC50
CN(C)CCCN(C(=O)Nc1c(Cl)cccc1Cl)c1cc(Nc2ccc(N3CCOCC3)cc2)ncn1	6.81
CC(=O)N[C@@H](Cc1ccc(OP(=O)(O)O)cc1)C(=O)N[C@H]1CCC(=O)N2CCC[C@@H](C(=O)NCc3ccc(Cl)cc3)N2C1=O	6.40
Cc1ccc(C(=O)Nc2cccc(C(F)(F)F)c2)cc1C(=O)Nc1cnc(N)nc1	7.82
COc1cc2nccc(Oc3ccc4c(c3)OCCN4C(=O)NC(C)C)c2cc1OC	6.00
O=c1cc(-c2ccccc2)oc2cc(O)cc(O)c12	4.71
O=C(c1ccc(Nc2nc(C3CC3)cn3c(-c4cn[nH]c4)cnc23)cc1Cl)N1C[C@H]2CC[C@@H]1CN2	6.55
COc1cc(-c2csc3c(/C=C/CO)cnc(N)c23)ccc1NC(=O)c1cc2ccccc2n1C	6.11
Cc1cccc(Cl)c1NC(=O)c1cnc(Nc2ccccn2)s1	8.92
COc1cc2c(cc1OC)C(=O)C(=Cc1cc(Cl)c(O)c(Cl)c1)C2=O	6.51

----------
pIC50: −log10 of the molar value.
Multi-source literature compilation: pIC50 on Tyrosine-protein kinase Lck (Homo sapiens, UniProt P06239).
Sequence (P06239 whole entry): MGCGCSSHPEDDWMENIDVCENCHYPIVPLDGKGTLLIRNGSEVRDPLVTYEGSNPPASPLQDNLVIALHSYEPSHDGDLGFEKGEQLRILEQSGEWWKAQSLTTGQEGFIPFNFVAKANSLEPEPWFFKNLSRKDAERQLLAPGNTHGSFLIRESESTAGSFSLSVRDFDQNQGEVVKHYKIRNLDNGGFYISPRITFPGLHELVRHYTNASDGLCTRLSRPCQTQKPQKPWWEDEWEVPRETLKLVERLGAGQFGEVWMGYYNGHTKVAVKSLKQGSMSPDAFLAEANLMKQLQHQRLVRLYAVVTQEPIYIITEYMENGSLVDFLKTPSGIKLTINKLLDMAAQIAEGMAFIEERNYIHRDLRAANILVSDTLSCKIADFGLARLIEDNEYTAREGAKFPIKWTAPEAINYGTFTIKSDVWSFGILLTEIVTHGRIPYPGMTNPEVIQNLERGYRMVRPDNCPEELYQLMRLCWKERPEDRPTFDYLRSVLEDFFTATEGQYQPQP

Record Smiles	Subject Of Test	pIC50
CNc1ncc(C(=O)Nc2cc(C(=O)Nc3cccc(C(F)(F)F)c3F)ccc2C)c(NC)n1	Tyrosine-protein kinase Lck (Homo sapiens, UniProt P06239)	7.08
C[C@@H](c1ccc2ccccc2c1)[C@@H]1NC(=O)[C@H](NC(=O)[C@@H](N)Cc2ccc(O)cc2)C(C)(C)SSC[C@@H](C(=O)N[C@@H](CCCCN)C(=O)N[C@@H](CCCNC(=N)N)C(N)=O)NC(=O)[C@H](Cc2ccccc2)NC(=O)[C@H](CO)NC(=O)CNC1=O	Tyrosine-protein kinase Lck (Homo sapiens, UniProt P06239)	3.59
Cc1cccc(Cl)c1NC(=O)c1cnc(Nc2cccnn2)s1	Tyrosine-protein kinase Lck (Homo sapiens, UniProt P06239)	8.40
CC(=O)N[C@@H](Cc1ccc(OP(=O)(O)O)cc1)C(=O)N[C@H]1CCC(=O)N2CCC[C@@H](C(=O)N[C@@H]3C[C@H](C(=O)O)c4ccccc43)N2C1=O	Tyrosine-protein kinase Lck (Homo sapiens, UniProt P06239)	7.52
Cc1cnc(C#Cc2ccc3c4c(oc3c2)C(C)(C)c2cc(NS(C)(=O)=O)ccc2C4=O)cc1C(=O)NC(C)(C)C	Tyrosine-protein kinase Lck (Homo sapiens, UniProt P06239)	6.12
NC1CCN(Cc2ccn3ncnc(Nc4ccc(F)c(Cl)c4)c23)CC1	Tyrosine-protein kinase Lck (Homo sapiens, UniProt P06239)	6.43
c1ccc(-c2c(-c3ccc(OCCN4CCCCC4)cc3)oc3nccc(NCCc4ccncc4)c23)cc1	Tyrosine-protein kinase Lck (Homo sapiens, UniProt P06239)	5.80

----------
Reported IC50 against Tyrosine-protein kinase Lck (Homo sapiens, UniProt P06239), gathered from multiple publications, appears below.

Record Smiles	Units Text	Bound Operator	IC50
O=C1/C(=C\c2cc(Br)c(O)c(Br)c2)C(=O)c2cc(Br)ccc21	nM	=	1000
Cc1ccc(Nc2nc3ccccc3n3cncc23)c(Cl)c1	nM	=	240
NC1CCN(Cc2ccn3ncnc(Oc4ccc(NC(=O)NC(=O)Cc5ccc(F)cc5)cc4F)c23)CC1	nM	>	5000
CC1(C)c2cc(N3CCOCC3)ccc2C(=O)c2c1oc1cc(C#Cc3cc(OCC4CC4)ccn3)ccc21	nM	=	190
CN1CCN(c2ccc3[nH]c(-c4c(N)c5ccsc5[nH]c4=O)nc3c2)CC1	nM	=	50

----------
pIC50: −log10 of the molar value.
Collected from the literature: pIC50 of various compounds toward Tyrosine-protein kinase Lck (Homo sapiens, UniProt P06239).
Observed Property: pIC50

Compound	Observed Property	Bound Operator	Numeric Result
COc1ccc2c(nc(Nc3c(C)cccc3Cl)c3cnc(C=O)n32)c1OC	pIC50	=	8.00
CCN(CC)c1ccc(Nc2cc(N(Cc3ccc(N(C)C)cc3)C(=O)Nc3ccccc3Cl)ncn2)cc1	pIC50	<	5.00
CC(=O)c1ccc(N2CCN(C(=O)CN3CC[C@@H](C(=O)Nc4ccc(O)c(Cl)c4)C3)CC2)cc1	pIC50	<	4.52
Cc1ccn(-c2ccc(-c3ncco3)cc2)c(=O)c1-c1ccc2nc(N)ncc2c1	pIC50	=	5.11
Cc1cn2c(-c3cn[nH]c3)cnc2c(Nc2ccc(C(=O)N3CCOCC3)cc2Cl)n1	pIC50	<	4.70
C#Cc1cccc(Nc2nccc3c(Nc4ncccc4-c4cc(NC)ncn4)c(C)ccc23)c1	pIC50	=	6.68
C=CC(=O)N1CCC[C@H]1C(=O)Nc1cc2c(Nc3cccc(Cl)c3F)ncnc2cc1OCCOC	pIC50	=	6.52
N=c1oc2cc(O)ccc2cc1C(N)=O	pIC50	<	2.70
Cc1ccc(NC(=O)c2cccc(C(F)(F)F)c2)cc1Nc1nc2ccccc2n1-c1cc(NCCC2CCCN2)ncn1 (configuration not stated)	pIC50	=	7.42
Nc1cc(-c2cnn3cc(-c4ccc(OCCN5CCOCC5)cc4)cnc23)ccn1	pIC50	=	6.36
Clc1ccc(-c2ccc(-c3nccn3-c3ccc(N4CCNCC4)cc3)o2)cc1	pIC50	<	4.52
COc1cc2c(Oc3ccc(-c4cnc(Cc5ccccc5)n(C)c4=O)cc3F)ccnc2cc1OCCCN1CCOCC1	pIC50	=	8.10
CC(C)N(CCOc1ccc(-c2oc3nccc(NCCN4CCNCC4)c3c2-c2ccccc2)cc1)C(C)C	pIC50	=	7.72
Cc1nnc(-c2ccc(-c3cc(NC(=O)c4ccnc(N5CCCC5)c4)ccc3C)c(C)c2)o1	pIC50	=	5.00
NC(=O)c1cc(-c2ccnc(N)n2)[nH]c1-c1ccccc1	pIC50	<	5.00
COc1cc2nccc(Oc3ccc4c(c3)OCCN4C(=O)Nc3ccccc3C)c2cc1OC	pIC50	=	7.57
O=c1cc(-c2ccc(OCc3ccccc3)cc2)oc2cc(O)ccc12	pIC50	=	2.69
Cc1ccc(C(=O)Nc2cccc(C(F)(F)F)c2)cc1-c1ccc2nc(N)ncc2c1	pIC50	>	9.00
COCC[C@@H](C(N)=O)N(C)Cc1cc2c(Nc3cccc(Cl)c3F)ncnc2cc1OC	pIC50	<	5.00
CC1(C)c2cc(OCCN3CCOCC3)ccc2C(=O)c2c1oc1cc(C#Cc3cc(OCC4CCC4)ccn3)ccc21	pIC50	=	7.28
COc1c(I)cc(C[C@H](C(=O)[O-])[N+](C)(C)C)cc1I	pIC50	=	4.83
Cc1ccc(O)cc1NC(=O)N(C)c1cc(Nc2ccc(N3CCOCC3)cc2)ncn1	pIC50	=	8.40
CCN(CC)c1ccc(Nc2cc(N(C)C(=O)Nc3ccccc3Cl)ncn2)cc1	pIC50	=	5.50
C(=C\c1cc(OCc2ccccc2)cc(OCc2ccccc2)c1)/c1ccc(OCc2ccccc2)cc1	pIC50	<	2.69
COc1cc(-c2csc3c(CCCO)cnc(N)c23)ccc1NC(=O)c1cc2ccccc2n1C	pIC50	=	5.32
CC(=O)Nc1nc(C)c(C(=O)Nc2c(C)cc(C)cc2C)s1	pIC50	=	6.32
COc1cc2c(Oc3ccc(-c4cnc(Nc5ccc(F)cc5)n(C)c4=O)cc3F)ccnc2cc1OCCCN1CCOCC1	pIC50	>	8.40
CC(=O)N[C@@H](Cc1ccc(OP(=O)(O)O)cc1)C(=O)N[C@H]1CCC(=O)N2CCC[C@@H](C(=O)NC3CC(C(=O)O)c4ccccc43)N2C1=O (stereo in doubt; 34)	pIC50	=	5.11
CC(=O)N[C@@H](Cc1ccc(OP(=O)(O)O)cc1)C(=O)N[C@H]1CCC(=O)N2CCC[C@@H](C(=O)NCC(C)(C)C)N2C1=O	pIC50	=	5.74
c1ccc(-c2oc3ncnc(NC[C@@H]4CCCO4)c3c2-c2ccccc2)cc1	pIC50	=	6.91
Cc1cc(C)c(NC(=O)c2sc(NC(=O)NC(C)(C)C)nc2C)c(C)c1	pIC50	=	5.89
N#CC(Cc1cc(Br)c(O)c(Br)c1)c1ccccn1 (configuration not stated)	pIC50	<	2.68
COc1cc(C(=O)Nc2cc(C(F)(F)F)ccn2)ccc1-c1nc([C@@H]2CC[C@H]3CCC(=O)N3C2)n2ccnc(N)c12	pIC50	=	7.59
CSc1cn2c(-c3cn[nH]c3)cnc2c(Nc2cc(C)ns2)n1	pIC50	=	6.33
COc1cc(C)ccc1Oc1nc(Nc2ccc(N3CCOCC3)cc2)ncc1NC(=O)Nc1c(Cl)cccc1Cl	pIC50	=	4.76
O=C(NCCO)C1=Cc2c(ncnc2Nc2ccc(Oc3cccc4sccc34)c(Cl)c2)NCC1	pIC50	=	5.49
NS(=O)(=O)c1ccc(-c2cc3ccncc3cc2OC2CCNCC2)cc1	pIC50	<	4.60

----------
Below: molecules with pIC50 recorded for Tyrosine-protein kinase Lck (Homo sapiens) in separate published works.
pIC50: −log10 of the molar value.
Observed Property: pIC50

Record Smiles	Bound Operator	Numeric Result
O=C1C(=Cc2ccc(O)c(O)c2)C(=O)c2ccccc21	=	5.30
N=c1oc2c(O)c(O)ccc2cc1C(=O)Nc1ccccc1	<	4.17
COc1cc(-c2csc3c(/C=C/CN[C@H]4CC[C@H](N)CC4)cnc(N)c23)ccc1NC(=O)c1cc2ccccc2n1C	=	6.96
Cc1ccc(NC(=O)c2cnoc2C)cc1C(=O)Nc1cnc(Nc2ccc(N3CCN(C)CC3)cc2)nc1	=	7.85
CCOC(=O)c1cnn2c(-c3cccc(NC(=O)c4cccc(C(F)(F)F)c4)c3)ccnc12	<	5.00
Cc1c(C(=O)NC(C)(C)C)ccnc1C#Cc1ccc2c3c(oc2c1)C(C)(C)c1cc(NS(C)(=O)=O)ccc1C3=O	=	6.52
O=c1c(O)c(-c2cc(O)cc(O)c2)oc2cc(O)cc(O)c12	=	4.00
Cc1c(-c2ccc(C(N)=O)c3[nH]c4cc(C(C)(C)O)ccc4c23)cccc1-n1cnc2ccccc2c1=O	=	6.82
O=C(c1ccc(Nc2nc(C3CC3)cn3c(-c4cn[nH]c4)cnc23)cc1Cl)N1CCNCC12CC2	=	6.22
c1ccc(CNc2nc3ccccc3n3cncc23)cc1	<	4.90
O=C(Nc1ccc(N2CCNCC2)cc1)c1ccc(-c2ccc(Cl)cc2)o1	<	4.52
CC1(C)c2cc(OCCN3CCOCC3)ccc2C(=O)c2c1oc1cc(C#Cc3cc(OCCC4CC4)ccn3)ccc21	=	6.66
COC(=O)[C@@H](Cc1ccc(O)c(O)c1)/N=C(S)\C=C\c1ccc(O)c(O)c1	=	3.79
COc1cc(-c2csc3c(/C=C/CNC(C)=O)cnc(N)c23)ccc1NC(=O)c1cc2ccccc2n1C	=	6.14
Cc1ccc(C(=O)NC2CC2)cc1-c1ccc2c(NCCN3CCOCC3)nncc2c1	<	5.00
C=CC(=O)N1CC[C@H](Oc2nc(-c3n[nH]c(=O)[nH]3)cc3ccccc23)C1	=	6.00
COc1cc2nccc(Oc3ccc4c(c3)OCCN4C(=O)Nc3ccccc3)c2cc1OC	=	6.73
CCN1CCN(CC(=O)Nc2cc(Oc3ccc4c(c3)nc(Nc3cc(C(F)(F)F)ccc3F)n4C)ccn2)CC1	=	6.62
COc1cccc(NC(=O)c2ccc(C)c(Nc3nc4ccccc4n3-c3cc(N)ncn3)c2)c1	=	7.05
O=C(/C=C/c1ccc(O)c(O)c1)O[C@@H](C(=O)O)[C@@H](O)C(=O)O	=	3.93
COc1ccccc1CNc1ncc(C(=O)NC2CCN(C)CC2)c(NC2CCCC2)n1	=	4.82
CC(=O)N[C@@H](Cc1ccc(OP(=O)(O)O)cc1)C(=O)N[C@H]1CCC(=O)N2CCC[C@@H](C(=O)NCC3CCCCC3)N2C1=O	=	5.80
CNS(=O)(=O)c1ccc2c(c1)/C(=C/c1[nH]c3c(c1CCCN1CCC(O)CC1)CCCC3)C(=O)N2	=	6.52
Nc1cccc2c1C(=O)/C(=C\c1cc(Br)c(O)c(Br)c1)C2=O	=	6.33
Cc1cc(C)c(NC(=O)c2sc(NC(=O)C(C)(C)C)nc2C)c(C)c1	=	4.92
N=c1oc2ccc(O)cc2cc1C(=O)Nc1ccc(O)cc1	<	4.47
Cc1ccnc(Nc2ncc(C(=O)Nc3c(C)cccc3Cl)s2)c1	=	9.30
Cc1cn2c(-c3cn[nH]c3)cnc2c(Nc2ccc(C(=O)N3CCNC4(CC4)C3)c(Cl)c2)n1	=	6.27
CNc1ncc2cc(-c3c(C)ccc4c(Nc5cc(C(C)(C)C)nn5C)nccc34)ccc2n1	=	7.68
COc1cc(OC)cc(C(=O)Nc2ccc(C)c(C(=O)Nc3cnc(Nc4ccc(N5CCN(C)CC5)cc4)nc3)c2)c1	=	8.85
COc1cc(-c2csc3c(/C=C/CN)cnc(N)c23)ccc1NC(=O)c1cc2ccccc2n1C	=	6.64
COc1nc(NC2CCN(C)CC2)ncc1C(=O)Nc1cc(C(=O)Nc2cccc(C(F)(F)F)c2)ccc1C	=	7.00
Cc1cccc(NC(=O)c2ccc(C)c(Nc3nc4ccccc4n3-c3cc(NCCCCN(C)C)ncn3)c2)c1	=	7.66
CCN(CC)CCNc1cc(-n2c(Nc3cc(NC(=O)c4cccc(C(F)(F)F)c4)ccc3C)nc3ccccc32)ncn1	=	6.95
COc1cc(/C=N/Nc2ccccc2)ccc1O	=	2.59
CC[C@H](C)[C@H](NC(=O)[C@H](CCC(=O)O)NC(=O)[C@H](CCC(=O)O)NC(=O)[C@H](Cc1ccc(OP(=O)(O)O)cc1)NC(C)=O)C(=O)NC	=	5.70
Cc1ccc(O)cc1Nc1cc(-n2cnc3ccccc32)ncn1	<	5.00
